- System: Molt-4
- METHOD NOTES: Cellular toxicity by [3H]-thymidine uptake
- Format: cell-based
- EXPERIMENTAL SETUP: Table 14; 72 hrs; read-out: CC50 (μM) [^3H]TTP incorporation in: Molt4

| MOLECULE | CC50 |
| --- | --- |
| Nc1ccn([C@@H]2CS[C@H](CO)O2)c(=O)n1 [Lamivudine, lamivudine] | > 100 µM |

---

- METHOD NOTES: Pharmacokinetic study in male and female rats (single dose iv or po)
- Assay type: in vivo, rat
- EXPERIMENTAL SETUP: parameters of DAPD & DXG after administration of DAPD; female rat, po 20 mg/kg
- Description: Compound A(−), DAPD, and DXG were administrated as a single dose, either intravenously through the jugular vein at 10 mg/kg or orally at 20, 125, 500, 1000 or 2000 mg/kg. All rats were fasted for 12 hours prior to po dosing treatment. The vehicle used for both iv and po administrations was 0.1% carboxymethylcellulose and 0.1% Tween 80 in distilled water, acidified to pH 3.15 with 1N HCl. Blood samples were taken from rats at the times shown in the schedule below for all oral dosing. […]

| COMPOUND | T1/2 |
| --- | --- |
| Nc1nc(N)c2ncn([C@H]3CO[C@@H](CO)O3)c2n1 [DAPD, (−)-β-D -2,6-diaminopurine dioxolane] | 31.3 min |

---

- METHOD NOTES: Preliminary pharmacokinetic study in male adult rats
- Type: in vivo
- EXPERIMENTAL SETUP: male, plasma; rat, oral 20 mg/kg

| MOLECULE | half-life (min) |
| --- | --- |
| Nc1nc(NC2CC2)c2ncn([C@H]3CO[C@@H](CO)O3)c2n1 [Compound A (-)] | 38.4 |
| Nc1nc(NC2CCC2)c2ncn([C@H]3CO[C@@H](CO)O3)c2n1 [Cmpd B (−)] | 72 |

---

- System: L74V
- METHOD NOTES: Recombinant drug resistant HIV-1 variants (RT activity)
- Type: cell-based
- EXPERIMENTAL SETUP: Human immunodeficiency virus 1
pEC50: −log10 of the molar value.

| MOLECULE | pEC50 |
| --- | --- |
| Nc1ccn([C@@H]2CS[C@H](CO)O2)c(=O)n1 | 6.29 |
| Nc1nc(NC2CC2)c2ncn([C@H]3CO[C@@H](CO)O3)c2n1 [Compound A (-)] | 6.21 |
| Cc1cn([C@H]2C[C@H](N=[N+]=[N-])[C@@H](CO)O2)c(=O)[nH]c1=O | 8.00 |

---

- METHOD NOTES: Cellular toxicity by [3H]-thymidine uptake
- Assay type: cell-based
- EXPERIMENTAL SETUP: human, Molt-4 cells, Table 4, read-out: CC50 (μM) [^3H-]TTP incorporation in: Molt-4
Below: a set of entries, each annotated with reported CC50 at 72 h.
PROPERTY MEASURED: CC50 at 72 h (µM)

| MOLECULE | REPORTED RELATION | TEST RESULT |
| --- | --- | --- |
| Nc1nc(NC2CCC2)c2ncn([C@H]3CO[C@@H](CO)O3)c2n1 [Cmpd B (−)] | > | 250 |
| Nc1ccn([C@H]2CC[C@@H](CO)O2)c(=O)n1 | = | 2 |
